assay: refractive index (Na D-line) (dimensionless); settings: 293.1 K; 101.33 kPa; Liquid; Standard Abbe refractometry
measured.quantity: refractive index
API note: the answer field is a bare number with no unit suffix.

refractive index reading for CCOC(=O)CCC(=O)OCC [diethyl butanedioate] : 1.42014

get_value(item= CCOC(=O)CCCCC(=O)OCC [diethyl hexanedioate] , readout=refractive index) returns 1.42725

In plain terms, CCOC(=O)CCCC(=O)OCC [diethyl glutarate] has a documented refractive index of 1.42414

The molecule identified as CC(=O)O registered its refractive index at 1.37201

* * *

details: 293.1 K; 101.33 kPa; Liquid; Vibrating tube method
± gives the expanded uncertainty stated by the source.
measured.quantity: mass density
Param answer (str): number followed by unit.

Please fill in: mass density reported for CCOC(=O)CCC(=O)OCC [diethyl butanedioate] = 1040.22 ± 0.27 kg/m3

// mass density value for CC(=O)O [acetic acid] : 1044.3 ± 0.27 kg/m3

So for CCOC(=O)CCCCC(=O)OCC [diethyl hexanedioate] , the logged mass density turned out to be 1007.63 ± 0.24 kg/m3

Looking up CCOC(=O)CCCC(=O)OCC [diethyl glutarate] , I see its mass density listed as 1022.04 ± 0.88 kg/m3

* * *

conditions: Liquid; Fisher boiling point apparatus
Answer each item with its documented Normal boiling temperature.
Please reply with the bare figure in °C and do not write the unit itself.

GET /value?item= CCOC(=O)CCC(=O)OCC [diethyl butanedioate] &field=Normal boiling temperature returns 217.70

Notebook: CCOC(=O)CCCCC(=O)OCC [diethyl hexanedioate] , Normal boiling temperature read as 245.20

Just so you know, measured Normal boiling temperature for CCOC(=O)CCCC(=O)OCC [diethyl glutarate] came out at 236.50

Record CC(=O)O [acetic acid] . Reported Normal boiling temperature: 118.00
